SYSTEM UNDER TEST: B. malayi iPGM (Brugia malayi)
Sequence (Q4VWF8 whole entry, looked up): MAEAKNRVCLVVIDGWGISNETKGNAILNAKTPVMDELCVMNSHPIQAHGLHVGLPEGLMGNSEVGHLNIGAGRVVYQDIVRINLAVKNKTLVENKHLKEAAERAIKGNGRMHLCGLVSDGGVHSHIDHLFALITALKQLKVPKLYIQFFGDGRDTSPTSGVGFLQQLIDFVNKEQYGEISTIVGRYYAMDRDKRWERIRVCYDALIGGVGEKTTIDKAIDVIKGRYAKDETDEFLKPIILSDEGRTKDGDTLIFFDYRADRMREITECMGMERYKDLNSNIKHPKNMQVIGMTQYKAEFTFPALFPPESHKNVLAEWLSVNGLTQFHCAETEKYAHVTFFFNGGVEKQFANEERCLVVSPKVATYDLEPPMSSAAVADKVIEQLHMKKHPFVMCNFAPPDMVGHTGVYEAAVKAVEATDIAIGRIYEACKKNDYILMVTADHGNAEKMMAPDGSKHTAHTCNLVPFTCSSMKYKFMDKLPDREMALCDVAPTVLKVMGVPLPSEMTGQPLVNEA
EXPERIMENT DESCRIPTION: biochemical
CONDITION PARAMETERS: read-out: B. malayi iPGM Max Inhibition
Where a SMILES comes first, the peptide text is derived from it. Bridges are numbered along the chain shown (N, C = ends).
PARAMETER: Emax (%)
A number alone suffices; assume %.

QUERY: Specify reported Emax for the compound shown: CC[C@H](C)[C@@H]1NC(=O)[C@H](CCCNC(=N)N)NC(=O)[C@H](Cc2ccccc2)NC(=O)[C@@H]2CCCN2C(=O)[C@H](CC(N)=O)NC(=O)[C@H](C)NC(=O)[C@H](CC(C)C)NC(=O)[C@H]([C@@H](C)O)NC(=O)[C@H]([C@@H](C)O)NC(=O)[C@H](Cc2ccc(O)cc2)NC(=O)CSC[C@@H](C(=O)NCC(N)=O)NC(=O)[C@H](Cc2c[nH]cn2)NC(=O)[C@H](CC(C)C)NC1=O [Ce-4] ({CH2CO}-YTTLANPFRILHCG-NH2; thioether N-13)
RESULT: 2.9
